The measured values listed here are drawn from patent US12617779B2.

What Production rate of Alvocidib was measured for each of the following?
# assay_details: Evaluation of conversion rate to active form in buffer solution (Experimental Example 1)
# Type: physicochemical
# condition_details: pH7.0, 0.5 hr, 37° C., 25 umol/L in buffer solution
Numbers only, in %.

In the examples that follow, each entry is paired with its recorded Production rate of Alvocidib.
CN1CC[C@H](c2c(OC(=O)N(CCF)CC3CCCCN3)cc(O)c3c(=O)cc(-c4ccccc4Cl)oc23)[C@H](O)C1 (stereo partly shown)
53.4
CN1CC[C@H](c2c(OC(=O)N(CCCC(F)(F)F)CC3CCCCN3)cc(O)c3c(=O)cc(-c4ccccc4Cl)oc23)[C@H](O)C1 (stereo partly shown)
62.0
CN1CC[C@H](c2c(OC(=O)N(C)C[C@H]3CCCCN3)cc(O)c3c(=O)cc(-c4ccccc4Cl)oc23)[C@H](O)C1
21.3

// switching to the query compound
Enquiry: Find the recorded Production rate of Alvocidib belonging to COCCN(CC1CCCCN1)C(=O)Oc1cc(O)c2c(=O)cc(-c3ccccc3Cl)oc2c1[C@H]1CCN(C)C[C@H]1O (stereo partly shown) and report it.
Return: 33.8

====

# assay_details: Evaluation of conversion rate to active form in buffer solution (Experimental Example 1)
# Format: physicochemical
# condition_details: pH5.0, 3 hr, 37° C., 25 umol/L in buffer solution
measurement_type: Residual rate

In the examples that follow, each entry is paired with its recorded Residual rate.
CN1CC[C@H](c2c(OC(=O)N(C)C[C@H]3CCCCN3)cc(O)c3c(=O)cc(-c4ccccc4Cl)oc23)[C@H](O)C1
95.6%
CCNC(=O)Oc1cc(O)c2c(=O)cc(-c3ccccc3Cl)oc2c1[C@H]1CCN(C)C[C@H]1O [Comparative Example 1, reference compound]
8.2%

// switching to the query molecule
Enquiry: Find the recorded Residual rate belonging to `CN1CC[C@H](c2c(OC(=O)N(C)C[C@@H]3CCCCN3)cc(O)c3c(=O)cc(-c4ccccc4Cl)oc23)[C@H](O)C1` and report it.
Return: 96.9%

====

What Residual rate was measured for each of the following?
# assay_details: Evaluation of conversion rate to active form in buffer solution (Experimental Example 1)
# Type: physicochemical
# condition_details: pH6.0, 0.5 hr, 37° C., 25 umol/L in buffer solution
# Procedure: For Examples 1 to 16 and Comparative Examples 1 to 14, the attrition rate of the test compound and the conversion rate of the test compound to Alvocidib in a buffer solution were calculated by the following method. Examples 1 to 16 and Comparative Examples 1 to 14 were each left in buffer solutions adjusted to pH 5.0, 5.5, 6.0, 6.5, 7.0 and 7.4, respectively, at a concentration of 25 umol/L at 37° C. […]
Numbers only, in %.

In the examples that follow, each entry is paired with its recorded Residual rate.
CCCN(C[C@H]1CCCCN1)C(=O)Oc1cc(O)c2c(=O)cc(-c3ccccc3Cl)oc2c1[C@H]1CCN(C)C[C@H]1O
94.8
CCNC(=O)Oc1cc(O)c2c(=O)cc(-c3ccccc3Cl)oc2c1[C@H]1CCN(C)C[C@H]1O [Comparative Example 1, reference compound]
3.7

// switching to the query compound
Enquiry: Find the recorded Residual rate belonging to CN1CC[C@H](c2c(OC(=O)N(Cc3ccccc3)CC3CCCCN3)cc(O)c3c(=O)cc(-c4ccccc4Cl)oc23)[C@H](O)C1 (stereo partly drawn) and report it.
Return: 91.0

====

# assay_details: Stability evaluation of solution formulation (Experimental Example 2)
# Format: physicochemical
# condition_details: solution formulation, pH4.0, 4 week
# Protocol: For Example 1, Example 2, Example 5, Example 6, Comparative Example 13 and Comparative Example 14, the attrition rate of the test compound and the conversion rate of the test compound to Alvocidib in a solution formulation were calculated by the following method. Example 1, Example 2, Example 5, Example 6, Comparative Example 13 and Comparative Example 14 were each added to buffer solutions adjusted to pH 3.0, 4.0 and 5.0, respectively, at a concentration of 0.1 mg/mL, and left at 5° C. […]
What Residual rate was measured for each of the following?
Answers are plain numbers, in %.

Please give Residual rate, item by item, for the list that follows.
1. CCN(C[C@H]1CCCCN1)C(=O)Oc1cc(O)c2c(=O)cc(-c3ccccc3Cl)oc2c1[C@H]1CCN(C)C[C@H]1O
2. CNCCN(C)C(=O)Oc1cc(O)c2c(=O)cc(-c3ccccc3Cl)oc2c1[C@H]1CCN(C)C[C@H]1O [Comparative Example 14, reference compound]
3. CCCN(C[C@H]1CCCCN1)C(=O)Oc1cc(O)c2c(=O)cc(-c3ccccc3Cl)oc2c1[C@H]1CCN(C)C[C@H]1O
4. CN1CC[C@H](c2c(OC(=O)N(C)CCN)cc(O)c3c(=O)cc(-c4ccccc4Cl)oc23)[C@H](O)C1 [Comparative Example 13, reference compound]
5. CCCN(C[C@@H]1CCCCN1)C(=O)Oc1cc(O)c2c(=O)cc(-c3ccccc3Cl)oc2c1[C@H]1CCN(C)C[C@H]1O

Return:
1: 96.4; 2: 63.0; 3: 98.2; 4: 94.4; 5: 98.1

====

# assay_details: Evaluation of conversion rate to active form in buffer solution (Experimental Example 1)
# Format: physicochemical
# condition_details: pH7.4, 0.5 hr
What Residual rate was measured for each of the following?
Numbers only, in %.

In the examples that follow, each entry is paired with its recorded Residual rate.
CNC(=O)Oc1cc(O)c2c(=O)cc(-c3ccccc3Cl)oc2c1[C@H]1CCN(C)C[C@H]1O [Comparative Example 2, reference compound]
0.0
CCCCCCC(=O)O[C@@H]1CN(C)CC[C@@H]1c1c(O)cc(O)c2c(=O)cc(-c3ccccc3Cl)oc12 [Comparative Example 11, reference compound]
92.3
CCC(=O)O[C@@H]1CN(C)CC[C@@H]1c1c(O)cc(O)c2c(=O)cc(-c3ccccc3Cl)oc12 [Comparative Example 6]
93.6

Please give Residual rate, item by item, for the list that follows.
1. CN1CC[C@H](c2c(OC(=O)N(C)CCN)cc(O)c3c(=O)cc(-c4ccccc4Cl)oc23)[C@H](O)C1 [Comparative Example 13, reference compound]
2. CNC(=O)O[C@@H]1CN(C)CC[C@@H]1c1c(O)cc(O)c2c(=O)cc(-c3ccccc3Cl)oc12 [Comparative Example 5, reference compound]
3. CNCCN(C)C(=O)Oc1cc(O)c2c(=O)cc(-c3ccccc3Cl)oc2c1[C@H]1CCN(C)C[C@H]1O [Comparative Example 14, reference compound]
4. C[C@H](N)C(=O)O[C@@H]1CN(C)CC[C@@H]1c1c(O)cc(O)c2c(=O)cc(-c3ccccc3Cl)oc12 [Comparative Example 7, reference compound]
5. CN1CC[C@H](c2c(O)cc(O)c3c(=O)cc(-c4ccccc4Cl)oc23)[C@H](OC(=O)CN)C1 [Comparative Example 8, reference compound]
6. CC(C)[C@H](N)C(=O)O[C@@H]1CN(C)CC[C@@H]1c1c(O)cc(O)c2c(=O)cc(-c3ccccc3Cl)oc12 [Comparative Example 10, reference compound]

Return:
1: 0.8; 2: 93.9; 3: 0.0; 4: 63.0; 5: 65.6; 6: 92.2

Please give Residual rate, item by item, for the list that follows.
1. CN1CC[C@H](c2c(O)cc(O)c3c(=O)cc(-c4ccccc4Cl)oc23)[C@H](OC(=O)[C@@H](N)CO)C1 [Comparative Example 9, reference compound]
2. CN1CC[C@H](c2c(O)cc(O)c3c(=O)cc(-c4ccccc4Cl)oc23)[C@H](OC(=O)c2ccccc2F)C1 [Comparative Example 12]
3. CCNC(=O)O[C@@H]1CN(C)CC[C@@H]1c1c(O)cc(O)c2c(=O)cc(-c3ccccc3Cl)oc12 [Comparative Example 4, reference compound]
4. CCOC(=O)O[C@@H]1CN(C)CC[C@@H]1c1c(O)cc(O)c2c(=O)cc(-c3ccccc3Cl)oc12 [Comparative Example 3, reference compound]

Return:
1: 76.2; 2: 97.5; 3: 97.6; 4: 91.0

====

# assay_details: Evaluation of conversion rate to active form in buffer solution (Experimental Example 1)
# Assay type: physicochemical
# condition_details: pH5.0, 1 hr, 37° C., 25 umol/L in buffer solution
What Production rate of Alvocidib was measured for each of the following?
Give bare numbers, in %.

In the examples that follow, each entry is paired with its recorded Production rate of Alvocidib.
CCN(CCC1CCCCN1)C(=O)Oc1cc(O)c2c(=O)cc(-c3ccccc3Cl)oc2c1[C@H]1CCN(C)C[C@H]1O (some centres unmarked)
0.0
CCCN(CC1CCCCN1)C(=O)Oc1cc(O)c2c(=O)cc(-c3ccccc3Cl)oc2c1[C@H]1CCN(C)C[C@H]1O (some centres unmarked)
2.1
CN1CC[C@H](c2c(OC(=O)N(C)CC3CCCCN3)cc(O)c3c(=O)cc(-c4ccccc4Cl)oc23)[C@H](O)C1 (some centres unmarked)
1.6
CN1CC[C@H](c2c(OC(=O)N(CCCC(F)(F)F)CC3CCCCN3)cc(O)c3c(=O)cc(-c4ccccc4Cl)oc23)[C@H](O)C1 (some centres unmarked)
31.7

Please give Production rate of Alvocidib, item by item, for the list that follows.
1. CN1CC[C@H](c2c(OC(=O)N(CCF)CC3CCCCN3)cc(O)c3c(=O)cc(-c4ccccc4Cl)oc23)[C@H](O)C1 (some centres unmarked)
2. CC(C)N(CC1CCCCN1)C(=O)Oc1cc(O)c2c(=O)cc(-c3ccccc3Cl)oc2c1[C@H]1CCN(C)C[C@H]1O (some centres unmarked)
3. CCN(C[C@@H]1CCCCN1)C(=O)Oc1cc(O)c2c(=O)cc(-c3ccccc3Cl)oc2c1[C@H]1CCN(C)C[C@H]1O [Example 1, ditrifluoroacetate]
4. CN1CC[C@H](c2c(OC(=O)N(C)C[C@H]3CCCCN3)cc(O)c3c(=O)cc(-c4ccccc4Cl)oc23)[C@H](O)C1

Return:
1.8
2.5
0.7
1.1
